experiment: Solubility in DMSO-water binary mixtures; format: physicochemical; settings: DMSO-water binary mixture, 25 °C, aqueous with cosolvent or surfactant or cyclodextrin, thermodynamic from solid, x*DMSO 0.2, 298.1 K
Item-by-item account of solubility at 24 h
Answer with a number only, understood to be in mg/mL.

INSERT INTO measurements (compound_structure, measure, units_of_measure, result) VALUES
  ('O=C1Nc2ccc([N+](=O)[O-])cc2C1=NNC(=O)c1cccc([N+](=O)[O-])c1', 'solubility at 24 h', 'mg/mL', 1.58),
  ('Nc1cccc(C(=O)NN=C2C(=O)Nc3ccc([N+](=O)[O-])cc32)c1', 'solubility at 24 h', 'mg/mL', 6.95);

Next compound, please.
Entry under test: `O=C1Nc2ccc([N+](=O)[O-])cc2C1=NNC(=O)c1ccccc1C(F)(F)F` . Its solubility at 24 h was 179

----------
assay: Solubility in DMSO-water binary mixtures; type: physicochemical; details: DMSO-water binary mixture, 25 °C, aqueous with cosolvent or surfactant or cyclodextrin, thermodynamic from solid, x*DMSO 0.3, 298.1 K
Measure: solubility at 24 h (mg/mL)
Answer with a number only, understood to be in mg/mL.

Solved entries (count: 2):
INSERT INTO assay_data (molecule, result) VALUES
  ('O=C1Nc2ccc([N+](=O)[O-])cc2C1=NNC(=O)c1cccc([N+](=O)[O-])c1 [derivative 3]', 2.48),
  ('Nc1cccc(C(=O)NN=C2C(=O)Nc3ccc([N+](=O)[O-])cc32)c1 [derivative 2]', 10.8);

Next molecule, please.
Entry under test: O=C1Nc2ccc([N+](=O)[O-])cc2C1=NNC(=O)c1ccccc1C(F)(F)F [derivative 1] . Its solubility at 24 h was 219

----------
Item-by-item account of solubility at 24 h
experiment: Solubility in NMP-water binary mixtures; format: physicochemical; settings: NMP-water binary mixture, x*NMP 0.4, 25 °C, aqueous with cosolvent or surfactant or cyclodextrin, thermodynamic from solid, x*NMP 0.4, 298.1 K
Answer with a number only, understood to be in mg/mL.

INSERT INTO results (molecule, measure, units_of_measure, result) VALUES
  ('Nc1cccc(C(=O)NN=C2C(=O)Nc3ccc([N+](=O)[O-])cc32)c1 [derivative 2]', 'solubility at 24 h', 'mg/mL', 23.3),
  ('O=C1Nc2ccc([N+](=O)[O-])cc2C1=NNC(=O)c1cccc([N+](=O)[O-])c1 [derivative 3]', 'solubility at 24 h', 'mg/mL', 6.49);

Next molecule, please.
Entry under test: O=C1Nc2ccc([N+](=O)[O-])cc2C1=NNC(=O)c1ccccc1C(F)(F)F [derivative 1] . Its solubility at 24 h was 205

----------
Item-by-item account of solubility at 24 h
assay: Solubility in NMP-water binary mixtures; format: physicochemical; details: NMP-water binary mixture, x*NMP 0.2, 25 °C, aqueous with cosolvent or surfactant or cyclodextrin, thermodynamic from solid, x*NMP 0.2, 298.1 K
Answer with a number only, understood to be in mg/mL.

Solved entries (count: 2):
INSERT INTO measurements (compound_structure, result) VALUES
  ('O=C1Nc2ccc([N+](=O)[O-])cc2C1=NNC(=O)c1cccc([N+](=O)[O-])c1', 3.29),
  ('O=C1Nc2ccc([N+](=O)[O-])cc2C1=NNC(=O)c1ccccc1C(F)(F)F', 111);

Next compound, please.
Entry under test: `Nc1cccc(C(=O)NN=C2C(=O)Nc3ccc([N+](=O)[O-])cc32)c1` . Its solubility at 24 h was 12.1

----------
assay: Solubility in DMSO-water binary mixtures; assay type: physicochemical; conditions: DMSO-water binary mixture, 25 °C, aqueous with cosolvent or surfactant or cyclodextrin, thermodynamic from solid, x*DMSO 0.9, 298.1 K
Measure: solubility at 24 h (mg/mL)
Answer with a number only, understood to be in mg/mL.

INSERT INTO results (compound_structure, result) VALUES
  ('O=C1Nc2ccc([N+](=O)[O-])cc2C1=NNC(=O)c1cccc([N+](=O)[O-])c1', 3.54),
  ('O=C1Nc2ccc([N+](=O)[O-])cc2C1=NNC(=O)c1ccccc1C(F)(F)F', 355);

Next molecule, please.
Entry under test: `Nc1cccc(C(=O)NN=C2C(=O)Nc3ccc([N+](=O)[O-])cc32)c1` . Its solubility at 24 h was 24.1

----------
Item-by-item account of solubility at 24 h
Assay: Solubility in neat solvents, shake-flask with spectrophotometric determination
Type: physicochemical
Settings: 25 °C, organic solvent or mixture, thermodynamic from solid; neat ethyl lactate, 298.1 K
Protocol: The calibration curves for each derivative were obtained using successful dilutions of initial stock solutions followed by spectrophotometric measurements of the obtained solutions with decreasing concentration. […] A multi-step procedure was employed in order to find the solubility of the studied derivatives in the selected solvents. […] The samples diluted with methanol were measured spectrophotometrically using the same instrument as was used in the case of calibration curves. […]
Answer with a number only, understood to be in µg/mL.

Solved entries (count: 2):
INSERT INTO results (molecule, units_of_measure, result) VALUES
  ('O=C1Nc2ccc([N+](=O)[O-])cc2C1=NNC(=O)c1cccc([N+](=O)[O-])c1 [derivative 3]', 'µg/mL', 180),
  ('Nc1cccc(C(=O)NN=C2C(=O)Nc3ccc([N+](=O)[O-])cc32)c1 [derivative 2]', 'µg/mL', 560);

Next molecule, please.
Entry under test: O=C1Nc2ccc([N+](=O)[O-])cc2C1=NNC(=O)c1ccccc1C(F)(F)F [derivative 1] . Its solubility at 24 h was 1250

----------
Item-by-item account of solubility at 24 h
assay: Solubility in neat solvents, shake-flask with spectrophotometric determination; assay type: physicochemical; conditions: neat 4FM, 25 °C, organic solvent or mixture, thermodynamic from solid
Answer with a number only, understood to be in µg/mL.

INSERT INTO measurements (compound_structure, measure, result) VALUES
  ('O=C1Nc2ccc([N+](=O)[O-])cc2C1=NNC(=O)c1cccc([N+](=O)[O-])c1', 'solubility at 24 h', 940);

Entry under test: `O=C1Nc2ccc([N+](=O)[O-])cc2C1=NNC(=O)c1ccccc1C(F)(F)F` . Its solubility at 24 h was 7220

Entry under test: `Nc1cccc(C(=O)NN=C2C(=O)Nc3ccc([N+](=O)[O-])cc32)c1` . Its solubility at 24 h was 3470

----------
experiment: Solubility in NMP-water binary mixtures; type: physicochemical; conditions: NMP-water binary mixture, x*NMP 0.9, 25 °C, aqueous with cosolvent or surfactant or cyclodextrin, thermodynamic from solid, x*NMP 0.9, 298.1 K
Item-by-item account of solubility at 24 h
Answer with a number only, understood to be in mg/mL.

Solved entries (count: 2):
INSERT INTO measurements (compound_structure, measure, units_of_measure, result) VALUES
  ('Nc1cccc(C(=O)NN=C2C(=O)Nc3ccc([N+](=O)[O-])cc32)c1', 'solubility at 24 h', 'mg/mL', 34.9),
  ('O=C1Nc2ccc([N+](=O)[O-])cc2C1=NNC(=O)c1cccc([N+](=O)[O-])c1', 'solubility at 24 h', 'mg/mL', 9.71);

Next molecule, please.
Entry under test: `O=C1Nc2ccc([N+](=O)[O-])cc2C1=NNC(=O)c1ccccc1C(F)(F)F` . Its solubility at 24 h was 282

----------
assay: Solubility in neat solvents, shake-flask with spectrophotometric determination; format: physicochemical; conditions: 25 °C, organic solvent or mixture, thermodynamic from solid; neat acetonitrile, 298.1 K
Item-by-item account of solubility at 24 h
Answer with a number only, understood to be in µg/mL.

Solved entries (count: 2):
INSERT INTO measurements (compound_structure, result) VALUES
  ('Nc1cccc(C(=O)NN=C2C(=O)Nc3ccc([N+](=O)[O-])cc32)c1', 610),
  ('O=C1Nc2ccc([N+](=O)[O-])cc2C1=NNC(=O)c1cccc([N+](=O)[O-])c1', 170);

Entry under test: `O=C1Nc2ccc([N+](=O)[O-])cc2C1=NNC(=O)c1ccccc1C(F)(F)F` . Its solubility at 24 h was 2020

----------
experiment: Solubility in DMSO-water binary mixtures; assay type: physicochemical; conditions: DMSO-water binary mixture, 25 °C, aqueous with cosolvent or surfactant or cyclodextrin, thermodynamic from solid, x*DMSO 0.1, 298.1 K
Measure: solubility at 24 h (µg/mL)
Answer with a number only, understood to be in µg/mL.

Solved entries (count: 2):
INSERT INTO measurements (compound_structure, measure, units_of_measure, result) VALUES
  ('O=C1Nc2ccc([N+](=O)[O-])cc2C1=NNC(=O)c1ccccc1C(F)(F)F', 'solubility at 24 h', 'µg/mL', 88000),
  ('O=C1Nc2ccc([N+](=O)[O-])cc2C1=NNC(=O)c1cccc([N+](=O)[O-])c1', 'solubility at 24 h', 'µg/mL', 860);

Entry under test: `Nc1cccc(C(=O)NN=C2C(=O)Nc3ccc([N+](=O)[O-])cc32)c1` . Its solubility at 24 h was 3220
